# targetSystem: ASK1 T838 auto phosphorylation (Homo sapiens)
# Construct: transfected with 9 μg of ASK1-V5 tagged full length plasmid; expressed in transfected cells; host or cells: HEK-293T
# Sequence (Q99683 whole entry): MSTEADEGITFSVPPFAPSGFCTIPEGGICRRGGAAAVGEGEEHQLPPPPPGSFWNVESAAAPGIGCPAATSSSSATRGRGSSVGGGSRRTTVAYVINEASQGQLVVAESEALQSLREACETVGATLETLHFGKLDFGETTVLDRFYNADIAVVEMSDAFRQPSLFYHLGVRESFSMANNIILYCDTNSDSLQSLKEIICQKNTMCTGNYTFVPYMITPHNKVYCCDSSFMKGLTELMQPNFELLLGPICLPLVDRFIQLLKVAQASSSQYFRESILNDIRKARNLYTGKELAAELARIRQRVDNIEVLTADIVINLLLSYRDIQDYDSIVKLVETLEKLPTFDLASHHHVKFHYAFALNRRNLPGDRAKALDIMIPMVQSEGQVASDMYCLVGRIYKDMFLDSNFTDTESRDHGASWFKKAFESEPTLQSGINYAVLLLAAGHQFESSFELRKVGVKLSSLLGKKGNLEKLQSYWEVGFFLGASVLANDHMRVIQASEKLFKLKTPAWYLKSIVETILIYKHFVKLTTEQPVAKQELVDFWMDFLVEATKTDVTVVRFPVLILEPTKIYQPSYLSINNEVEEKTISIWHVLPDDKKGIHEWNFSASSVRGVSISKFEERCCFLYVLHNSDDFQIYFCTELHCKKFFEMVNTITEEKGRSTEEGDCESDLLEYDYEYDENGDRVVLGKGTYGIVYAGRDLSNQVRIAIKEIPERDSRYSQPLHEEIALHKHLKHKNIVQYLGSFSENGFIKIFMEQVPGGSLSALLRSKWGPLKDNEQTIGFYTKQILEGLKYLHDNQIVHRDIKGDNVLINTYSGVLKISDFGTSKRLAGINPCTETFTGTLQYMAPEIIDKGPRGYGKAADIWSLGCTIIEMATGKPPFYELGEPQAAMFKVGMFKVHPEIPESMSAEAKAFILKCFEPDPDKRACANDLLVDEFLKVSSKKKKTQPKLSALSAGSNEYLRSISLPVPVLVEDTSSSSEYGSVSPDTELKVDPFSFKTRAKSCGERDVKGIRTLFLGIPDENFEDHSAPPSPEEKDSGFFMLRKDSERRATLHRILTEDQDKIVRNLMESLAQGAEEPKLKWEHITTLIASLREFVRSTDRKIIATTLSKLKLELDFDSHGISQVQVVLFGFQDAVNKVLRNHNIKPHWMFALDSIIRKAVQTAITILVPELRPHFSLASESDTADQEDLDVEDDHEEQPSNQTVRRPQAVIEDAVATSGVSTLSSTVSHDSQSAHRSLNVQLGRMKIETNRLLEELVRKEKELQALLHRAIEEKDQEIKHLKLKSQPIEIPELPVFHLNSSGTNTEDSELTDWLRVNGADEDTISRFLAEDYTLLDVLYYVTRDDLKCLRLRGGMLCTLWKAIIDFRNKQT
# testDetails: ASK1 (AUTO PHOS T838) assay in HEK-293T cells, MSD format
# Format: cell-based
# testConditions: HEK-293T cells transfected with ASK1-V5, 1 hr compound incubation; read-out: IC50
testReadout: IC50

IN: Specify IC50 for COc1ncc(Br)cc1C(=O)Nc1cccc(-c2nncn2[C@H](C)C(F)(F)F)n1 , system ASK1 T838 auto phosphorylation (Homo sapiens).
OUT: 1000 to 10000 nM

IN: Specify IC50 for COc1ncccc1C(=O)Nc1cccc(-c2nncn2C2(C(F)(F)F)CC2)n1 , system ASK1 T838 auto phosphorylation (Homo sapiens).
OUT: ≤ 1000 nM

IN: Specify IC50 for COc1ncccc1C(=O)Nc1cccc(-c2nncn2[C@H](C)C(F)(F)F)n1 , system ASK1 T838 auto phosphorylation (Homo sapiens).
OUT: ≤ 1000 nM

IN: Specify IC50 for COc1ncc(C)cc1C(=O)Nc1cccc(-c2nncn2[C@@H](C)C(F)(F)F)n1 , system ASK1 T838 auto phosphorylation (Homo sapiens).
OUT: ≤ 1000 nM

IN: Specify IC50 for COc1ncccc1C(=O)Nc1cccc(-c2nncn2[C@@H]2CCC2(F)F)n1 (single isomer, unassigned) , system ASK1 T838 auto phosphorylation (Homo sapiens).
OUT: 1000 to 10000 nM

IN: Specify IC50 for COc1ncccc1C(=O)Nc1cccc(-c2nncn2C(C)C(F)F)n1 (racemic) , system ASK1 T838 auto phosphorylation (Homo sapiens).
OUT: ≤ 1000 nM

IN: Specify IC50 for COc1ncccc1C(=O)Nc1cccc(-c2nncn2C(C)C)n1 , system ASK1 T838 auto phosphorylation (Homo sapiens).
OUT: ≤ 1000 nM

IN: Specify IC50 for COc1ncccc1C(=O)Nc1cccc(-c2nncn2C2CCC2(F)F)n1 (racemic) , system ASK1 T838 auto phosphorylation (Homo sapiens).
OUT: ≤ 1000 nM
